- TARGET_ENTITY: human IL-6 (human, UniProt P05231 30-212)
- Sequence (P05231 30-212 limits assumed): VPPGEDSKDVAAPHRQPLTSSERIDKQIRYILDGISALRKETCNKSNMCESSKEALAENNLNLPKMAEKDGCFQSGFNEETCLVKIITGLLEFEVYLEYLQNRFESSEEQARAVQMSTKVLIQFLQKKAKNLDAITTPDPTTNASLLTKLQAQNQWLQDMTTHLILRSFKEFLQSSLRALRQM
- TEST: SPR (Biacore), supernatant antibody on Protein A chip, IL-6 flowed, 37 C
Everything with koff lower than 0.0007 s⁻¹ is rule not met; everything else, including exactly 0.0007 s⁻¹, is rule met.

binder="anti-IL-6 antibody, heavy chain T65D, G66D / light chain M32L, M50D, N52S, M88Q (antibody, human IgG1, V domains shown, Human IgG1) VH: EVQLVESGGGLVQPGGSLRLSCAASGFTFSPFAMSWVRQAPGKGLEWVAKISPGGSWTYYSDTVDDRFTFSLDTSKSTAYLQMNSLRAEDTAVYYCARQLWGYYALDIWGQGTLVTVSS VL: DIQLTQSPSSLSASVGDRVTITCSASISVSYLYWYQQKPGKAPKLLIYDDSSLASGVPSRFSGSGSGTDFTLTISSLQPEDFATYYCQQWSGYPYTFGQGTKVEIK" group="rule not met"

Asked: Is koff at least 0.0007 s⁻¹? Consider anti-IL-6 antibody, heavy chain I51H, G66D / light chain M32L, M50D, N52S, M88Q (antibody, human IgG1, V domains shown, Human IgG1) VH: EVQLVESGGGLVQPGGSLRLSCAASGFTFSPFAMSWVRQAPGKGLEWVAKHSPGGSWTYYSDTVTDRFTFSLDTSKSTAYLQMNSLRAEDTAVYYCARQLWGYYALDIWGQGTLVTVSS VL: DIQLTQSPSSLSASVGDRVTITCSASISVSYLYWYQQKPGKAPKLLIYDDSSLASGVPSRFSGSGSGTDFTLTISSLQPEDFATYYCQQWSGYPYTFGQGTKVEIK
Given back: rule met

Asked: # check: koff of anti-IL-6 antibody, heavy chain T63P, G66D / light chain M32L, M50D, N52S, M88Q (antibody, human IgG1, V domains shown, Human IgG1) VH: EVQLVESGGGLVQPGGSLRLSCAASGFTFSPFAMSWVRQAPGKGLEWVAKISPGGSWTYYSDPVTDRFTFSLDTSKSTAYLQMNSLRAEDTAVYYCARQLWGYYALDIWGQGTLVTVSS VL: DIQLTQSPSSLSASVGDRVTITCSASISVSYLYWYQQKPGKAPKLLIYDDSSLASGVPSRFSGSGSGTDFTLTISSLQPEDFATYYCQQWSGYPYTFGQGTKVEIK is greater than or equal to 0.0007 s⁻¹
Given back: rule not met

Asked: Record anti-IL-6 antibody, heavy chain T65G, G66D / light chain M32L, M50D, N52S, M88Q (antibody, human IgG1, V domains shown, Human IgG1) VH: EVQLVESGGGLVQPGGSLRLSCAASGFTFSPFAMSWVRQAPGKGLEWVAKISPGGSWTYYSDTVGDRFTFSLDTSKSTAYLQMNSLRAEDTAVYYCARQLWGYYALDIWGQGTLVTVSS VL: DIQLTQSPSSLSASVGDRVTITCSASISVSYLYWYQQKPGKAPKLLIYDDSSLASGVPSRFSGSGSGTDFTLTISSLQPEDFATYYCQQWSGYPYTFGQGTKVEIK ; criterion: koff no lower than 0.0007 s⁻¹. Met?
Given back: rule not met
